# experimental_protocol: Subunit association by FPLC on Sephacryl S-100HR
# Format: physicochemical
# condition_description: tetramer 44 to 47 mL, dimer 51 to 54 mL, monomer 63 to 66 mL
readout_name: Sephacryl (mL), elution peak position
The reply should be a number in mL, with the unit left off.

The value of Sephacryl (mL), elution peak position measured for the molecule TM2P46T-D116A: TM2 with 46th proline replaced with threonine and 116th aspartic acid with alanine; SEQ ID NO: 16 (protein, Synthetic TM2 P46T-D116A) MSDVQSSLTGTWYNELNSKMELTANKDGTLTGKYLSKVGDVYVPYTLSGRYNLQPPAGQGVALGWAVSWENSKIHSATTWSGQFFSESSPVILTQWLLSSSTARGDVWESTLVGNASFTKTAPTEQQIAHAQLHCRAPRLK turned out to be 46.23
